All figures here come from patent US20050202033A1.

- Study system: recombinant human or murine heat shock protein 70 (hsp70) (human or murine), P0DMV8
- Sequence (P0DMV8 whole entry): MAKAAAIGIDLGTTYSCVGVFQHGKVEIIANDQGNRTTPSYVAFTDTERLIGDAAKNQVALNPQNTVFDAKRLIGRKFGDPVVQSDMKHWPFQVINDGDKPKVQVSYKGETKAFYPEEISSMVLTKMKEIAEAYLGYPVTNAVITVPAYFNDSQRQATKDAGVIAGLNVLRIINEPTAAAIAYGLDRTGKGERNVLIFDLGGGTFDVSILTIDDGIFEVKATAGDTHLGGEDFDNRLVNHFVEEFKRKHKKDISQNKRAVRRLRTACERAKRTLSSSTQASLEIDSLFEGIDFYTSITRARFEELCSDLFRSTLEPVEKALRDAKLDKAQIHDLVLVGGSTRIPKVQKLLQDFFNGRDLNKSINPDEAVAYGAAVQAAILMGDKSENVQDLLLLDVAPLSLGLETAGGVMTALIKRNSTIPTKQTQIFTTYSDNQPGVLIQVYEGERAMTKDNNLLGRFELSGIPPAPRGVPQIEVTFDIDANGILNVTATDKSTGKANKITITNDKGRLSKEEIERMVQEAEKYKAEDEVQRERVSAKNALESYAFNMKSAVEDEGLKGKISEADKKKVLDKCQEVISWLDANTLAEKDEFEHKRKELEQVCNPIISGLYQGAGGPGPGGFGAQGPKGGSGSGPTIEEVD
- Test details: binding inhibition assay (Hill plot) against tritiated … on hsp70
Property measured: pKd
The read-out pKd is expressed as -log10 of concentration in moles per litre.

# input Would you mind telling me what pKd value was observed for NLLRLTGW (modifications not checked) ?
# output 5.73

# input Would you mind telling me what pKd value was observed for IMDQVPFSVGSGNLLRLTGW (modifications not checked) […gsgNLLRLTGW] ?
# output 5.51

# input Would you mind telling me what pKd value was observed for TLGIVCPIGSGNLLRLTGW (modifications not checked) [TLGIVCPIgsgNLLRLTGW] ?
# output 5.28

# input Would you mind telling me what pKd value was observed for ALFDIESKV (modifications not checked) [… (Prostate Specific Membrane Antigen 771-779)] ?
# output 3.84
